Give pIC50 for every item shown.
Species on record: Homo sapiens
assayName: Inhibition of 10 uM ADP induced platelet aggregation in human platelet rich citreated plasma (PRP)
Format: functional
One number for each entry, as −log10 of the molar value.

[
  {
    "querySmiles": "CC[C@H](C)[C@@H]1NC(=O)[C@H](NC(C)=O)C(C)(C)SSC[C@@H](C(N)=O)NC(=O)[C@H](CCCNC(=N)N)NC(=O)[C@H](Cc2ccc(OC)cc2)NC(=O)[C@H](CC(=O)O)NC(=O)CNC(=O)[C@H](CCCNC(=N)N)NC(=O)[C@@H]2CCCN2C1=O",
    "pIC50": 6.55
  },
  {
    "querySmiles": "CC(C)C[C@@H]1NC(=O)[C@H](CC(=O)O)NC(=O)CNC(=O)[C@H](CCCNC(=N)N)NC(=O)[C@H](Cc2c[nH]cn2)NC(=O)CNC(=O)[C@@H](NC(=O)[C@@H](N)CCCNC(=N)N)C2(CCCCC2)SSC[C@@H](C(=O)N[C@@H](CCCNC(=N)N)C(=O)O)NC(=O)[C@H](CCCNC(=N)N)NC1=O",
    "pIC50": 5.52
  },
  {
    "querySmiles": "NC(N)=NCCC[C@H](NC(=O)[C@@H]1CSSC2(CCCCC2)[C@H](NC(=O)[C@@H](N)CCCN=C(N)N)C(=O)NCC(=O)N[C@@H](Cc2c[nH]cn2)C(=O)N[C@@H](CCCN=C(N)N)C(=O)NCC(=O)N[C@@H](CC(=O)O)C(=O)N[C@@H](Cc2ccc(O)cc2)C(=O)N[C@@H](CCCN=C(N)N)C(=O)N1)C(=O)O",
    "pIC50": 6.01
  }
]

Consider the following items and state reported pIC50 for each.
1. COc1ccc(C[C@@H]2NC(=O)[C@H](CC(=O)O)NC(=O)CNC(=O)[C@H](CCCN=C(N)N)NC(=O)[C@H](Cc3c[nH]cn3)NC(=O)[C@H](CO)NC(=O)[C@@H](NC(=O)[C@@H](N)CCCN=C(N)N)C3(CCCCC3)SSC[C@@H](C(=O)N[C@@H](CCCN=C(N)N)C(=O)O)NC(=O)[C@H](CCCN=C(N)N)NC2=O)cc1
2. CCCCOc1ccc(C[C@@H]2NC(=O)[C@H](CC(=O)O)NC(=O)CNC(=O)[C@H](CCCNC(=N)N)NC(=O)[C@H](Cc3c[nH]cn3)NC(=O)CNC(=O)[C@@H](NC(=O)[C@@H](N)CCCNC(=N)N)C3(CCCCC3)SSC[C@@H](C(=O)N[C@@H](CCCNC(=N)N)C(=O)O)NC(=O)[C@H](CCCNC(=N)N)NC2=O)cc1
3. COc1ccc(C[C@@H]2NC(=O)[C@H](CC(=O)O)NC(=O)CNC(=O)[C@H](CCCNC(=N)N)NC(=O)[C@@H]3CCCN3C(=O)[C@H](CC(N)=O)NC(=O)[C@@H](NC(C)=O)CSSC[C@@H](C(N)=O)NC(=O)[C@H](CC(C)C)NC2=O)cc1

6.02
6.46
5.12

Which pIC50 is listed for CC(C)C[C@@H]1NC(=O)[C@H](CC(=O)O)NC(=O)CNC(=O)[C@H](CCCNC(=N)N)NC(=O)[C@H](Cc2c[nH]cn2)NC(=O)CNC(=O)[C@@H](NC(=O)[C@@H](N)CCCNC(=N)N)C(C)(C)SSC[C@@H](C(=O)N[C@@H](CCCNC(=N)N)C(=O)O)NC(=O)[C@H](CCCNC(=N)N)NC1=O ?
5.02
